experimental_details: soluble fraction after stress (log2 fold change); higher = more stays soluble; pooled small domains, quantitative proteomics
experimental_context: stress: pH 4

{"biosequence": "HMEQTMNDMLKLVDLLPQNQQDIVRMRFYENMSFKEIAESNQISINTALGRMRYAILNLRKYAAERNL", "soluble fraction (log2)": -1.57}
{"biosequence": "HMQQIQILPDGKIKLPDLSGTNMREAIEILHKGGLRMKPYGSGNAYQQKPAAGETVASGTTVEVLSL", "soluble fraction (log2)": 0.0974}
{"biosequence": "HMRKKTYEIITDDLRRMIEAGLIRPGEKLGAIDQLAAKYRVGRSTVREALSHLKALGLVESRQGGGTYVTK", "soluble fraction (log2)": 0.109}
{"biosequence": "HMSTDNINYKNILIASLLIHAAKIDENYTENEKNIIKKALIELDEIDSKKADEIMILAEKKE", "soluble fraction (log2)": -0.271}
{"biosequence": "HMSKHATLLEALADLSVKLKPHSQLPSERALSEEYGVSRMTLRRAIDVLQARGYIYSVPSKGLFVSEP", "soluble fraction (log2)": -0.0584}
{"biosequence": "HMSDPHEELMSRIARDLSIPLTRVVAEMNTIISKEFGGHIRPEGAVVILAKRSGVEFSDLLPALRENILK", "soluble fraction (log2)": -0.852}
{"biosequence": "HMGEKTLSEKVYDRLKELIMDGELERGTKITETSIAKMFDVSPTPVREAFRKLASDGLIEVASWKGVIVKG", "soluble fraction (log2)": 0.338}
{"biosequence": "HMLLNLSPIETQVLRLIQQDKKVTYESIGKELTIGQTKVYKVLGHLKELNVIERIGGRTYGHWHILL", "soluble fraction (log2)": -0.599}
{"biosequence": "HMAGTPAIVKWFNPTKGFGFVTPKEAGSDALLHASVLAKRGKRWLQEGTLVEVLIEEGPKGLVVSELLTIE", "soluble fraction (log2)": -0.659}
{"biosequence": "HMDSVEMFSPILGMNANMDLDTLTQTRDKLLEKYKDDEQLIGLVNKTYDYFNEILLKQFLIEELEKNE", "soluble fraction (log2)": -0.207}
{"biosequence": "HMDSGFMRTTQSYTVARLAEIFRLSGEDYLAVLREYDGWYQDLTSTKDLIRKGSDVPVPEGV", "soluble fraction (log2)": -1.02}
{"biosequence": "HMDYHTIQTGDKGDEVLRLQQALAEYGYYEGDLDGRFGQQTRRAVERFQYSHGLTADGIAGRNTLSVLYD", "soluble fraction (log2)": -0.051}
{"biosequence": "HMAVENTGLSKRELEILQMMARGMSNQEIGDALFISLSTVKTHVASIFSKLQAVRRTQAVGIAKSLKII", "soluble fraction (log2)": -0.367}
{"biosequence": "HMSVTVPDVKRMQAEDAKALLSRYRLRSEVIDSVYVDNIPRGAVVEQIPRENSSVKENRIVFLTINSN", "soluble fraction (log2)": -0.546}

----------
experimental_details: soluble fraction after stress (log2 fold change); higher = more stays soluble; pooled small domains, quantitative proteomics
experimental_context: stress: pH 4
# cutoff -0.4 applies to soluble fraction (log2); >= gives YES, < gives NO

{"biosequence": "HMGELYGTDQYKDGDAQDTNIGKLLEVNIDGKWQVATTGTSRFEFAGVMDDNGHKLIMISVLPEAKTV", "class_assignment": "NO"}
{"biosequence": "HMRNGGHTVYRNNGSLFIVVRDGDKLESVASEFRVSPKKLIKYNDLDIHSNVKTGDMIYIRPKA", "class_assignment": "YES"}
{"biosequence": "HMQQDGSSSLGENMLNQELQARGVVPSEIPQEVWERVIQEAGKKSKREIYADIGLGRSLAAGFAQRLAA", "class_assignment": "YES"}
{"biosequence": "HMFMPGTIIKQFRELRNYSQDYVSRKMGISQNAYSKIENNITQLTVTHVKQLSSILDVPIVELLR", "class_assignment": "YES"}
{"biosequence": "HMAQFNELLFELRQDRKMTQEDLAKVLFVTSGTISNYENGVHLPDIEKLISLADFFGVTTDYLLG", "class_assignment": "NO"}
